Read-out: growth arrest and DNA damage 45 (GADD45B), GADD45B (gene 4616)
ASSAY PROTOCOL: LTEA_HepaRG_GADD45B: Life Technologies and Expression Analysis (LTEA) Assay for growth arrest and DNA damage 45 (GADD45B) using HepaRG (AID 2283461)
PROTOCOL CONDITIONS: mRNA level, 48 h; actives raise or lower the signal
Method: LTEA_HepaRG is a cell based, multiplexed-readout assay that uses HepaRG, a human liver cell line, with measurements taken at 48 hours after chemical dosing on a 96-well plate.LTEA_HepaRG_GADD45B is one of 102 assay component(s) measured in the LTEA HepaRG cell culture assay. It is a marker of Cell proliferation, survival, death.Data from the assay component LTEA_HepaRG_GADD45B was analyzed into 1 endpoint. […]
The source made the active and inactive calls. Rule for the calls: active = hit-call score of the fitted dose curve at least 0.9, where 1 is the maximum; inactive = score below 0.9.
Pick from 1 = active, -1 = inactive when you respond.

CC(C)(O)C(=O)Nc1ccc([N+](=O)[O-])c(C(F)(F)F)c1 :: -1
Oc1c(Cl)c(Cl)c(Cl)c(Cl)c1Cl :: 1
CCCCCCCCCC[N+](C)(C)CCCCCCCCCC :: 1

I'd appreciate the recorded outcome for `CCCN(CCC)N=O` from this test.
-1

And then `ClC(Cl)=C(c1ccc(Cl)cc1)c1ccc(Cl)cc1` , what is it?
-1

How about this compound: `Cc1cc2c3c(c1)C(c1ccccc1)=N[C@@H](NC(=O)c1ccncc1)C(=O)N3CC2`
-1

---

Read-out: Heat shock 70 kDa protein 1 (HSPA1A), gene 3303
ASSAY PROTOCOL: LTEA_HepaRG_HSPA1A: Life Technologies and Expression Analysis (LTEA) Assay for Heat shock 70 kDa protein 1 (HSPA1A) using HepaRG (AID 2283502)
PROTOCOL CONDITIONS: mRNA level, 48 h; actives raise or lower the signal
Calls of active or inactive are those of the source. Rule for the calls: active = hit-call score of the fitted dose curve at least 0.9, where 1 is the maximum; inactive = score below 0.9.
Respond using exactly one of the listed classes: true (1) for active, false (0) for inactive

Below are worked cases with known answers.
CCC(C)(c1ccc(O)cc1)c1ccc(O)cc1 :: false (0)
CCCCCCCCCC[N+](C)(C)CCCCCCCCCC :: false (0)
Cc1ccccc1CO[C@@H]1C[C@@]2(C(C)C)CC[C@]1(C)O2 :: true (1)
Cc1ccc(O)c(C)c1 :: false (0)
CC(C)(c1ccccc1)c1ccc(O)cc1 :: false (0)

Proceed to the following item.
Dear all, I need the recorded test outcome for `Cc1cc(-c2ccc(N)c(C)c2)ccc1N` , thank you.
false (0)

---

TGT: Estrogen receptor (Homo sapiens) (UniProt P03372)
Sequence (P03372 whole entry, looked up): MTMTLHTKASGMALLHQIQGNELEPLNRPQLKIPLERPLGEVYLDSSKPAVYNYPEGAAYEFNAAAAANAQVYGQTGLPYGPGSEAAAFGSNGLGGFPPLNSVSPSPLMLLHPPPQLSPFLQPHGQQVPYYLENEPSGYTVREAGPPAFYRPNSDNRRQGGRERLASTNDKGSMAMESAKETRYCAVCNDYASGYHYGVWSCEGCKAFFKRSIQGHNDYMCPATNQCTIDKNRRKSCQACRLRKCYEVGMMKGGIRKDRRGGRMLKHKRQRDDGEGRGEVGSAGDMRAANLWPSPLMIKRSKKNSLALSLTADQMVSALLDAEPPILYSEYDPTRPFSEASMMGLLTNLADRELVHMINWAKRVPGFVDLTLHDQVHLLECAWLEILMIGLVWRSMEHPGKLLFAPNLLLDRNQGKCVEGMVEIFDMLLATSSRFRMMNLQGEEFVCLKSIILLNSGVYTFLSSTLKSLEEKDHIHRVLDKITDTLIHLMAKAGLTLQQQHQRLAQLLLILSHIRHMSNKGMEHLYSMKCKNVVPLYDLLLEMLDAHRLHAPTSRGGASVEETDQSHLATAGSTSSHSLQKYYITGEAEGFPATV
ASSAY PROTOCOL: CCTE_Deisenroth_AIME_384WELL_LUC_Inactive: CCTE's 384-well Estrogen Receptor Transactivation Assay without AIME metabolic competence (ERTA luciferase; metabolism negative), Deisenroth Lab (AID 2284038);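 note: VM7Luc4E2 breast cells given medium preincubated 2 h with S9-free microspheres; hits raise estrogen receptor luciferase signal so potencies reflect agonists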
Description: CCTE_Deisenroth_AIME_384WELL (AIME metabolism assay) is a cell-based, single-readout assay that uses VM7Luc4E2, a human mammary gland/breast cell line, with measurements taken at 24 hour after chemical dosing in a 384-well plate.CCTE_Deisenroth_AIME_384WELL_LUC_Inactive is one of four assay components measured or calculated from the CCTE_Deisenroth_AIME_384WELL assay. […]
Results filed as inconclusive are left out. Calls of active or inactive are those of the source. Rule for the calls: active = hit-call score of the fitted dose curve at least 0.9, where 1 is the maximum; inconclusive = response in the unintended direction; inactive = score below 0.9.
PROPERTY NAME: AC50

C[C@]12CCC(=O)C=C1CC[C@@H]1[C@@H]2CC[C@]2(C)C(=O)CC[C@@H]12 :: inactive
Nn1cnnc1 :: inactive
Cc1cccc([N+](=O)[O-])c1 :: inactive
C1CC2OC2CC1C1CO1 (stereo not given) :: inactive
C[C@]12CCC(=O)C=C1CC[C@@H]1[C@@H]2CC[C@@]2(C)[C@H]1CC[C@]2(C)O :: 1.63 µM (active)

Which AC50 value belongs to `CCOCCOC(C)=O` ?
inactive

Okay, and `CCCN(CCC)N=O` ?
inactive

Again, but for `C=CC(=O)NCNC(=O)C=C`
inactive

Same question, `CCCCCCCCCc1ccc(O)cc1` this time
24.5 µM (active)

Can you check `c1cc2ccc3cccc4ccc(c1)c2c34` next?
inactive
